- EXPERIMENT_NOTES: mRNA encapsulation efficiency of LNP formulations (Quant-it Ribogreen assay with Triton-X100)
- Assay type: physicochemical
- ASSAY_CONDITIONS: Table 1; LNP with eGFP mRNA; N/P ratio 3:1; DMPE-PEG2000
OBSERVATION_TYPE: % EE (%)

1. CCCCCC(CCCCC)CCOC(=O)CCCCCCCC(CCCCCCCC(=O)OCCC(CCCCC)CCCCC)NC1CC2(COC2)C1 | 97
2. CCCCC/C=C\C/C=C\CCCCCCCCC(CCCCCCCC/C=C\C/C=C\CCCCC)OC(=O)CCCN(C)C [MC3, reference compound] | 99
3. CCCCCC(CCCCC)CCOC(=O)CCCCCCCC(CCCCCCCC(=O)OCCC(CCCCC)CCCCC)NCC1COC1 | 99
4. CCCCCC(CCCCC)CCOC(=O)CCCCCCCC(CCCCCCCC(=O)OCCC(CCCCC)CCCCC)NCC1CCOC1 (stereo not drawn) | 99
5. CCCCCC(CCCCC)CCOC(=O)CCCCCCCC(CCCCCCCC(=O)OCCC(CCCCC)CCCCC)NCC1CCOCC1 | 96
6. CCCCCC(CCCCC)CCOC(=O)CCCCCCCC(CCCCCCCC(=O)OCCC(CCCCC)CCCCC)NC1CCOCC1 | 96
